# systemUnderTest: hYAK3 (Homo sapiens, UniProt O43781)
# Construct: containing amino acid residues 124-526 of human YAK3; GST (N); His6 (C)
# Sequence (O43781 124-526): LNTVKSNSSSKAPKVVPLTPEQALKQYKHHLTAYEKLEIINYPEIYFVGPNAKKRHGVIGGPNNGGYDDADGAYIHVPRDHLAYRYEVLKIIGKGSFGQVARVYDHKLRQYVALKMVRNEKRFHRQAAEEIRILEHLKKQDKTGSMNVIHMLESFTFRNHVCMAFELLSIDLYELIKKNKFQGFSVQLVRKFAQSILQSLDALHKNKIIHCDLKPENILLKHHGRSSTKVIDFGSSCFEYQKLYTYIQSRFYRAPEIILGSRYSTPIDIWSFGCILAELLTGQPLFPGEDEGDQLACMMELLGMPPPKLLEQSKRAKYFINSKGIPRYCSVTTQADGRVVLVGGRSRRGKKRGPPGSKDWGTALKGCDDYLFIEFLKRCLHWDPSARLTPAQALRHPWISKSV
# protocol: YAK3 Scintillation Proximity Assay using Ser164 of myelin basic protein as the phosphoacceptor (kinase assay of purified hYAK3)
# experimentalContext: purified GST-hYak3-His6 (residues 124-526), 4 nM; 0.001 mM ATP; 4 μM Ser164 peptide; 2 hours at room temperature; compounds 50 μM to 0.5 nM
pIC50: −log10 of the molar value. Counter-ions that a name gives are not always drawn.
reportedMetric: pIC50

Look up pIC50 for this compound: COc1ccc2cc(C(=O)O)c(NCCc3ccncc3)nc2c1 [Example 5]
> 6.00

Next record, please: COc1ccc2cc(C(=O)O)c(NCCN(C)C)nc2c1 [Example 6, hydrochloride]
> 6.00

Next record, please: COc1ccc2cc(C(=O)O)c(NC3Cc4ccccc4C3)nc2c1 [Example 7]
> 6.00

Next record, please: O=C(O)c1cc2ccc(O)cc2nc1Nc1ccccc1Cl [Example 12]
> 6.00

Next record, please: COc1ccc2cc(C(=O)O)c(NCCCN3CCOCC3)nc2c1 [Example 8]
5.00 to 6.00

Next record, please: COc1ccc2cc(C(=O)O)c(NCCCNC(=O)OC(C)(C)C)nc2c1 [Example 1]
5.00 to 6.00

Next record, please: COc1ccc2cc(C(=O)O)c(NCCCN)nc2c1 [Example 2]
> 6.00

Next record, please: COc1ccc2cc(C(=O)O)c(NCc3ccccc3)nc2c1 [Example 3]
> 6.00

Next record, please: COc1ccc2cc(C(=O)O)c(NCCc3ccccc3)nc2c1 [Example 4]
> 6.00
